assay: activators of APP 5'UTR luciferase reporter, primary screen, SH-SY5Y cells (AID 1276); conditions: SH-SY5Y APP 5'UTR luciferase reporter, luminescence; at 2 µM; hits give high values; zero percent = DMSO vehicle wells
Screen size: about 190,000 compounds; about 2,000 (1.1%) were called active. What follows is part of a selection rich in actives, with near analogues and random picks from the rest.
Recorded activation by entry

COMPOUND	UNIT_STRING	activation
O=C(COC(=O)[C@H](Cc1ccccc1)NC(=O)c1cccs1)Nc1cc(F)ccc1F	%	12.5
CCOc1ccc(CN2CCN(Cc3ccon3)CC2CCO)cc1 (configuration not stated)	%	7.1
O=C(NCc1nnc(SCC(=O)N2CCCc3ccccc32)o1)c1ccccc1F	%	-9.96
O=C(c1cccc(N2CCCC2=O)c1)N1CCOCC1	%	10.7
CC1CCCC(C)N1/N=C/c1ccccc1OC(F)F (configuration not stated)	%	5.03
CCn1c(SCc2cc(=O)n3ccsc3n2)nc2ccccc21	%	-4.54
CCOC(=O)CSC1=N/C(=C/c2ccc(-n3cncn3)cc2)C(=O)N1C(C)=O	%	-12
O=C(Nc1ccc(NC(=O)c2cccs2)cn1)c1ccco1	%	148
O=C(O)c1cccc(N2C(=O)Nc3ccccc3N2O)c1	%	27.8
COc1ccc(NC(=S)N2N=CCC2c2ccccc2)cc1 (configuration not stated)	%	180
COc1cccc(C(=O)Nc2ccc(NC(=O)c3ccco3)cn2)c1	%	25.8
COc1ccc(C(=S)Nc2ccccc2)cc1	%	68.3

----------
experiment: activators of APP 5'UTR luciferase reporter, primary screen, SH-SY5Y cells (AID 1276); details: SH-SY5Y APP 5'UTR luciferase reporter, luminescence; at 2 µM; hits give high values; zero percent = DMSO vehicle wells
The campaign covered roughly 190,000 compounds. About 2,000 (1.1%) were called active. Many of the other results were omitted from the sample, so actives are more common in it than they were.
Recorded activation by entry

CPD_SMILES	activation (%)
O=[N+]([O-])c1cccc(Nc2c3ccccc3nc3ccccc23)c1	-0.09
c1ccc2[nH]c(-c3nc4ccccc4[nH]3)nc2c1	181
COc1cccc(-c2nc3cc(C)ccc3o2)c1	172
CCN1CCC(=NNC(=O)c2ccc(C)c([N+](=O)[O-])c2)CC1	-0.15
COc1ccc(Br)cc1C(=O)NC(=S)Nc1cc(-c2nc3ccccc3[nH]2)ccc1C	21.4
COc1ccc(-c2nc3cc([N+](=O)[O-])ccc3o2)cc1OC	20.2

----------
assay: activators of APP 5'UTR luciferase reporter, primary screen, SH-SY5Y cells (AID 1276); settings: SH-SY5Y APP 5'UTR luciferase reporter, luminescence; at 2 µM; hits give high values; zero percent = DMSO vehicle wells
In all, about 190,000 compounds went through this assay and about 2,000 (1.1%) were called active. The entries come from a sample that favours actives as a whole.
Answer Not fulfilled if activation is under 10%, and Fulfilled if it is 10% or more.

MOLECULE	CLASSIFICATION
O=C(Nc1ccc2nccnc2c1)c1ccco1	Fulfilled
CCOCCCNC(=O)C(=O)NCCCOCC	Not fulfilled
N/C(=N\OC(=O)Cc1ccc([N+](=O)[O-])cc1)c1ccccn1	Fulfilled
O=C(Nc1ccc2oc(-c3ccccc3F)nc2c1)c1ccco1	Fulfilled
O=C(Nc1ccc(Oc2ccccc2)cc1)c1ccco1	Fulfilled
CN(C)CCn1c(=S)[nH]c2ccc(Cl)cc2c1=O	Not fulfilled
CCCC1(C(=O)OC)NC(c2ccco2)C2C(=O)N(C)C(=O)C21 (centres undefined)	Not fulfilled
CC(C)C(=O)OCC(=O)Nc1ccc2c(c1)CCC2	Not fulfilled
O=C(CSc1ccccc1)Nc1ccc(NC(=O)c2ccco2)cc1	Not fulfilled
CN1C(=O)/C(=C\c2ccc(-c3ccccc3)o2)SC1=S	Not fulfilled
CN(C)CCN=c1cc(-c2ccccc2)oc2ccc(Cl)cc12	Fulfilled
O=C(NNC(=O)c1cc2c(s1)CCCC2)c1ccccc1	Fulfilled
O=[N+]([O-])c1ccccc1N/N=C1\CCc2ccccc21	Fulfilled
O=C(NC1CCCC1)c1ccc(Br)s1	Not fulfilled
